# Test system: HCC1569
# Experimental Details: cell number relative to DMSO (% of DMSO); higher = more cells (less growth inhibition / toxicity);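 note: TDF denotes transformed human dermal fibroblasts of mesenchymal origin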
# Experimental Conditions: concentration: 10 µM; 24 h
Threshold check on cell number: at or above 100 gives T, strictly below gives F.

{"columns": ["Compound", "Assigned Label"],
 "data": [
  ["CCCCCC(C=CC=CCCCCCCCCCC(=O)O)OO (configuration not stated)", "T"]
]}

Moving on to the next compound.
Prompt line: Does cell number meet or surpass 100 for `CCCCCC=CCC=CCC=CCC=CCCCC(=O)NCCc1ccc(O)c(O)c1` ?
Response line: F

* * *

# Tested on: TDF
# Experimental Details: cell number relative to DMSO (% of DMSO); higher = more cells (less growth inhibition / toxicity)
# Experimental Conditions: concentration: 10 µM; 24 h
Quantity: cell number
Form field (numeric): enter value without unit.

The following compounds have reported results that may help.
{"columns": ["Compound", "System Under Test", "cell number"],
 "data": [
  ["C#CCNC(C)Cc1ccccc1.Cl (stereo not drawn) [R-(-)-Desmethyldeprenyl hydrochloride]", "TDF", 103],
  ["C=CCc1cc(OC)c2c(c1)OCO2 [Myristicin]", "TDF", 103]
]}

// moving on: another record for cell number
What the record says about `CCN(C)C(=O)Oc1cccc([C@H](C)N(C)C)c1.O=C(O)C(O)C(O)C(=O)O` : cell number is 98.9
